# System: Escherichia coli TOP10
# ASSAY INFO: shrunken log2 fold change of peptide-encoding DNA abundance (4.5 h post-induction vs induction); higher = less antimicrobial activity (less host growth inhibition)
# TEST CONDITIONS: time post-induction: 4.5 h; library: site-saturation at positions 5, 18, 19, 20
Outcome: class 1 for shrunken log2 fold change of at least -0.01; class 0 for anything lower.

{"columns": ["SEQUENCE CONTENT", "DISCRETE LABEL"],
 "data": [
  ["RRIRLRPPRLPRPRPRPIMMPRP", "class 0"],
  ["RRIRGRPPRLPRPRPRPITMPRP", "class 0"],
  ["RRIRMRPPRLPRPRPRPWKEPRP", "class 1"],
  ["RRIRNRPPRLPRPRPRPDCYPRP", "class 0"],
  ["RRIRDRPPRLPRPRPRPCFLPRP", "class 0"],
  ["RRIRMRPPRLPRPRPRPNKHPRP", "class 0"],
  ["RRIRKRPPRLPRPRPRPYQIPRP", "class 1"],
  ["RRIRLRPPRLPRPRPRPAIRPRP", "class 0"],
  ["RRIRKRPPRLPRPRPRPNEAPRP", "class 1"],
  ["RRIRTRPPRLPRPRPRPHQLPRP", "class 0"],
  ["RRIRGRPPRLPRPRPRPNRMPRP", "class 1"],
  ["RRIRVRPPRLPRPRPRPMYVPRP", "class 1"],
  ["RRIRKRPPRLPRPRPRPRQTPRP", "class 1"],
  ["RRIRYRPPRLPRPRPRPPIYPRP", "class 0"],
  ["RRIRVRPPRLPRPRPRPCQVPRP", "class 0"]
]}

---

Overview of reported shrunken log2 fold change across a group of sequences:
# System: Escherichia coli TOP10
# ASSAY INFO: shrunken log2 fold change of peptide-encoding DNA abundance (4.5 h post-induction vs induction); higher = less antimicrobial activity (less host growth inhibition)
# TEST CONDITIONS: time post-induction: 4.5 h; library: site-saturation at positions 5, 18, 19, 20

{"columns": ["SEQUENCE CONTENT", "shrunken log2 fold change"],
 "data": [
  ["RRIRKRPPRLPRPRPRPKDMPRP", 0.139],
  ["RRIRHRPPRLPRPRPRPFCNPRP", 0.00929],
  ["RRIRHRPPRLPRPRPRPGVDPRP", -0.213],
  ["RRIRYRPPRLPRPRPRPPFCPRP", -0.332],
  ["RRIRSRPPRLPRPRPRPSMPPRP", -0.706],
  ["RRIRDRPPRLPRPRPRPMYNPRP", -0.354],
  ["RRIRRRPPRLPRPRPRPKVDPRP", 0.0529],
  ["RRIRYRPPRLPRPRPRPIQIPRP", -0.409]
]}

---

Below, each entry is listed with its recorded shrunken log2 fold change.
# System: Escherichia coli TOP10
# ASSAY INFO: shrunken log2 fold change of peptide-encoding DNA abundance (4.5 h post-induction vs induction); higher = less antimicrobial activity (less host growth inhibition)
# TEST CONDITIONS: time post-induction: 4.5 h; library: site-saturation at positions 5, 18, 19, 20

{"columns": ["SEQUENCE CONTENT", "shrunken log2 fold change"],
 "data": [
  ["RRIRTRPPRLPRPRPRPIIEPRP", -0.565],
  ["RRIRYRPPRLPRPRPRPRLFPRP", -0.194],
  ["RRIRCRPPRLPRPRPRPPCGPRP", 0.142],
  ["RRIRVRPPRLPRPRPRPPAAPRP", 0.397],
  ["RRIRERPPRLPRPRPRPDFTPRP", -0.233],
  ["RRIRGRPPRLPRPRPRPGSRPRP", 0.565],
  ["RRIRIRPPRLPRPRPRPNAWPRP", 0.213],
  ["RRIRARPPRLPRPRPRPGMRPRP", 0.545],
  ["RRIRYRPPRLPRPRPRPQPSPRP", 0.0385],
  ["RRIRCRPPRLPRPRPRPRCHPRP", 0.0572],
  ["RRIRHRPPRLPRPRPRPDRDPRP", -0.0136],
  ["RRIRKRPPRLPRPRPRPPNEPRP", 1.68],
  ["RRIRHRPPRLPRPRPRPNPAPRP", -0.0505],
  ["RRIRWRPPRLPRPRPRPNILPRP", -0.402],
  ["RRIRERPPRLPRPRPRPSYDPRP", -0.301]
]}

---

# Test system: Escherichia coli TOP10
# ASSAY INFO: shrunken log2 fold change of peptide-encoding DNA abundance (4.5 h post-induction vs induction); higher = less antimicrobial activity (less host growth inhibition)
# TEST CONDITIONS: time post-induction: 4.5 h; library: site-saturation at positions 5, 18, 19, 20

{"columns": ["SEQUENCE CONTENT", "TARGET SYSTEM", "shrunken log2 fold change"],
 "data": [
  ["RRIRTRPPRLPRPRPRPWLGPRP", "Escherichia coli TOP10", -0.00306],
  ["RRIRQRPPRLPRPRPRPGGSPRP", "Escherichia coli TOP10", -0.141],
  ["RRIRNRPPRLPRPRPRPNTMPRP", "Escherichia coli TOP10", 0.402],
  ["RRIRHRPPRLPRPRPRPLCAPRP", "Escherichia coli TOP10", -0.0531],
  ["RRIRHRPPRLPRPRPRPRRIPRP", "Escherichia coli TOP10", 0.0543],
  ["RRIRPRPPRLPRPRPRPMKSPRP", "Escherichia coli TOP10", -0.0679],
  ["RRIRNRPPRLPRPRPRPHIKPRP", "Escherichia coli TOP10", -0.595],
  ["RRIRIRPPRLPRPRPRPNPHPRP", "Escherichia coli TOP10", -0.581],
  ["RRIRQRPPRLPRPRPRPMQKPRP", "Escherichia coli TOP10", 0.0524],
  ["RRIRCRPPRLPRPRPRPLTDPRP", "Escherichia coli TOP10", -0.285],
  ["RRIRKRPPRLPRPRPRPMDTPRP", "Escherichia coli TOP10", 0.336],
  ["RRIRQRPPRLPRPRPRPMWVPRP", "Escherichia coli TOP10", 0.551],
  ["RRIRWRPPRLPRPRPRPPMAPRP", "Escherichia coli TOP10", 0.598],
  ["RRIRVRPPRLPRPRPRPRCLPRP", "Escherichia coli TOP10", -0.16],
  ["RRIRPRPPRLPRPRPRPNSEPRP", "Escherichia coli TOP10", -0.211]
]}

---

# Tested on: Escherichia coli TOP10
# ASSAY INFO: shrunken log2 fold change of peptide-encoding DNA abundance (4.5 h post-induction vs induction); higher = less antimicrobial activity (less host growth inhibition)
# TEST CONDITIONS: time post-induction: 4.5 h; library: site-saturation at positions 5, 18, 19, 20

{"columns": ["SEQUENCE CONTENT", "TARGET SYSTEM", "shrunken log2 fold change"],
 "data": [
  ["RRIRWRPPRLPRPRPRPIKSPRP", "Escherichia coli TOP10", 0.0589],
  ["RRIRARPPRLPRPRPRPSVDPRP", "Escherichia coli TOP10", 0.125],
  ["RRIRDRPPRLPRPRPRPPPFPRP", "Escherichia coli TOP10", 0.321],
  ["RRIRRRPPRLPRPRPRPMYYPRP", "Escherichia coli TOP10", -0.232],
  ["RRIRWRPPRLPRPRPRPTIFPRP", "Escherichia coli TOP10", 0.0443],
  ["RRIRPRPPRLPRPRPRPEQWPRP", "Escherichia coli TOP10", 0.0326],
  ["RRIRFRPPRLPRPRPRPGQSPRP", "Escherichia coli TOP10", 0.0525],
  ["RRIRRRPPRLPRPRPRPNHIPRP", "Escherichia coli TOP10", -0.502],
  ["RRIRERPPRLPRPRPRPAHSPRP", "Escherichia coli TOP10", -0.159],
  ["RRIRPRPPRLPRPRPRPQCIPRP", "Escherichia coli TOP10", -0.182],
  ["RRIRTRPPRLPRPRPRPRRPPRP", "Escherichia coli TOP10", 0.493],
  ["RRIRIRPPRLPRPRPRPMWKPRP", "Escherichia coli TOP10", -0.0693],
  ["RRIRMRPPRLPRPRPRPHPVPRP", "Escherichia coli TOP10", 0.0384],
  ["RRIRLRPPRLPRPRPRPDEEPRP", "Escherichia coli TOP10", 0.138],
  ["RRIRQRPPRLPRPRPRPKIKPRP", "Escherichia coli TOP10", -0.273]
]}

---

# Test system: Escherichia coli TOP10;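 also: peptides expressed intracellularly from a pBAD plasmid library in pooled LB shake-flask culture, induced with 0.3% L-arabinose, DNA abundance read by NGS, three biological replicates, DESeq2 with apeglm shrinkage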
# ASSAY INFO: shrunken log2 fold change of peptide-encoding DNA abundance (4.5 h post-induction vs induction); higher = less antimicrobial activity (less host growth inhibition)
# TEST CONDITIONS: time post-induction: 4.5 h; library: site-saturation at positions 5, 18, 19, 20

{"columns": ["SEQUENCE CONTENT", "TARGET SYSTEM", "shrunken log2 fold change"],
 "data": [
  ["RRIRYRPPRLPRPRPRPPGSPRP", "Escherichia coli TOP10", 0.0125],
  ["RRIRMRPPRLPRPRPRPLKYPRP", "Escherichia coli TOP10", -0.0456],
  ["RRIRTRPPRLPRPRPRPILYPRP", "Escherichia coli TOP10", -0.275],
  ["RRIRNRPPRLPRPRPRPYTQPRP", "Escherichia coli TOP10", -0.798],
  ["RRIRIRPPRLPRPRPRPIDPPRP", "Escherichia coli TOP10", -0.142],
  ["RRIRGRPPRLPRPRPRPMHFPRP", "Escherichia coli TOP10", -0.0109],
  ["RRIRKRPPRLPRPRPRPKGLPRP", "Escherichia coli TOP10", -0.00973],
  ["RRIRFRPPRLPRPRPRPHWAPRP", "Escherichia coli TOP10", -0.0371]
]}
